Target: T1, recombinant human CD123-Fc (human, UniProt P26951 19-305)
T1 construct: not shown: Fc part of CD123-Fc
T1 sequence: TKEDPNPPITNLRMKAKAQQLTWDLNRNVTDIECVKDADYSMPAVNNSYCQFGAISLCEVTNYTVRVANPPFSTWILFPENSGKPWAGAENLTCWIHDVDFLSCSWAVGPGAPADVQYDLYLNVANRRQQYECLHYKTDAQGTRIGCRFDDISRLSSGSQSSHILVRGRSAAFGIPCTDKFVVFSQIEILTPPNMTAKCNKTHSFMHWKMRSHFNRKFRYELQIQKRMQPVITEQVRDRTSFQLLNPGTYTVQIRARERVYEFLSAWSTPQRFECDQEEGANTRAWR
Assay: phage ELISA, captured CD123-Fc
Entries are grouped by ELISA_avg into these classes: LOW = under 4 ratio A450 target/IgG1-Fc, MEDIUM = from 4 ratio A450 target/IgG1-Fc up to 9 ratio A450 target/IgG1-Fc, HIGH = 9 ratio A450 target/IgG1-Fc and over

binder: SEQ ID NO: 438 (designed binder, D domain, on phage) MGSWYEFKDDLAEIKEWLEALGGSEAELAFFELDIADFEWLLQLYKGKGNPEVEALRKEAAAIRDELQAYRHN
category: LOW

binder: SEQ ID NO: 484 (designed binder, D domain, on phage) MGSWSMFKDDLAEIKASLEALGGSEAELAWFEDDIAWFEDDLQHYKGKGNPEVEALRKEAAAIRDELQAYRHN
category: MEDIUM

binder: SEQ ID NO: 321 (designed binder, D domain, on phage) MGSWSEFITRLEAIDDRLWALGGSEAELAAFEKEIAAFESELQAYKGKGNPEVEILREEAAEIRQHLQAYRHN
category: LOW

binder: SEQ ID NO: 331 (designed binder, D domain, on phage) MGSWVEFDQRLEAIYDRLYALGGSEAELAAFEKEIAAFESELQAYKGKGNPEVEWLREDAAQIRKWLQAYRHN
category: MEDIUM

binder: SEQ ID NO: 538 (designed binder, D domain, on phage) MGSWYEFDMRLDAIWERLTALGGSEAELADFEQYIAEFERQLQDYKGKGNPEVEALFDEAWAIEDELYAYRHN
category: HIGH

binder: SEQ ID NO: 474 (designed binder, D domain, on phage) MGSWNWFKEDLAIIKMDLEALGGSEAELAWFEHNIAGFEFELQGYKGKGNPEVEALRKEAAAIRDELQAYRHN
category: LOW

binder: SEQ ID NO: 456 (designed binder, D domain, on phage) MGSWYWFKEELAFIKWELEALGGSEAELALFEEDIAYFEEMLQEYKGKGNPEVEALRKEAAAIRDELQAYRHN
category: HIGH

binder: SEQ ID NO: 436 (designed binder, D domain, on phage) MGSWHWFKTDLADIKEELEALGGSEAELAMFEDDIAEFEEFLQMYKGKGNPEVEALRKEAAAIRDELQAYRHN
category: LOW

binder: SEQ ID NO: 425 (designed binder, D domain, on phage) MGSWYEFSMRLDAIYDRLMALGGSEAELAAFEKEIAAFESELQAYKGKGNPEVEQLRGYAANIRNELQAYRHN
category: HIGH

binder: SEQ ID NO: 610 (designed binder, D domain, on phage) MGSWDEFEFRLEAIDSRLWALGGSEAELAVFEYEIAQFEFMLQEYKGKGNPEVEALGMEAWAIENELFAYRHN
category: LOW

binder: SEQ ID NO: 423 (designed binder, D domain, on phage) MGSWVEFSIRLDAIYTRLVALGGSEAELAAFEKEIAAFESELQAYKGKGNPEVEMLRKGAANIRKELQAYRHN
category: HIGH

binder: SEQ ID NO: 420 (designed binder, D domain, on phage) MGSWVEFNWRLDAIYDRLVALGGSEAELAAFEKEIAAFESELQAYKGKGNPEVEWLRVSAAKIRGELQAYRHN
category: HIGH

binder: SEQ ID NO: 468 (designed binder, D domain, on phage) MGSWVFFKEDLATIKNDLEALGGSEAELAWFEMMIADFEADLQYYKGKGNPEVEALRKEAAAIRDELQAYRHN
category: LOW

binder: SEQ ID NO: 491 (designed binder, D domain, on phage) MGSWYIFKEDLAEIKEELEALGGSEAELAYFEEEIALFEMELQWYKGKGNPEVEALRKEAAAIRDELQAYRHN
category: HIGH

binder: SEQ ID NO: 413 (designed binder, D domain, on phage) MGSWSEFHVRLDAIYARLDALGGSEAELAAFEKEIAAFESELQAYKGKGNPEVERLREWAANIRRELQAYRHN
category: HIGH

binder: SEQ ID NO: 330 (designed binder, D domain, on phage) MGSWIEFYDRLEAIYDRLDALGGSEAELAAFEKEIAAFESELQAYKGKGNPEVEWLREDAAFIRSWLQAYRHN
category: MEDIUM

Where do these numbers come from? They come from patent US20230125550A1.
